tested.system: HLA-B*46:01
protocol.notes: IEDB peptide-MHC binding, purified MHC/competitive/fluorescence; filed as Kd, often an IC50 or EC50 that approximates it; bounds were set here for any values at or beyond the usual limits of such assays
test.conditions: source organism: Four Corners hantavirus
pKd: −log10 of the molar value.
reported.metric: pKd

>  <entry.sequence>
PELGAFFAI

>  <tested.system>
HLA-B*46:01

>  <endpoint.value>
≤ 4.70

$$$$

* * *

tested.system: HLA-A*11:01
protocol.notes: IEDB peptide-MHC binding, purified MHC/competitive/fluorescence; filed as Kd, often an IC50 or EC50 that approximates it; bounds were set here for any values at or beyond the usual limits of such assays
test.conditions: source organism: Pseudomonas aeruginosa UCBPP-PA14
reported.metric: Kd

>  <entry.sequence>
FLDDASNSA

>  <reported.metric>
Kd

>  <endpoint.value>
≥ 20 µM

$$$$

* * *

tested.system: HLA-A*31:01
protocol.notes: IEDB peptide-MHC binding, purified MHC/competitive/fluorescence; filed as Kd, often an IC50 or EC50 that approximates it; bounds were set here for any values at or beyond the usual limits of such assays
test.conditions: source organism: Orthomarburgvirus marburgense

>  <entry.sequence>
LFLSFCSLF

>  <tested.system>
HLA-A*31:01

>  <Kd>
≥ 20 µM

$$$$

* * *

tested.system: HLA-A*02:01
protocol.notes: IEDB peptide-MHC binding, purified MHC/competitive/fluorescence; bounds were set here for any values at or beyond the usual limits of such assays
test.conditions: source organism: Variola virus
pIC50: −log10 of the molar value.

>  <entry.sequence>
ITDFHERPV

>  <pIC50>
5.24

$$$$
>  <entry.sequence>
NYLFGGFST

>  <pIC50>
4.63

$$$$
>  <entry.sequence>
AFIHIPGDT

>  <pIC50>
4.61

$$$$

* * *

tested.system: HLA-A*01:01
protocol.notes: IEDB peptide-MHC binding, purified MHC/competitive/radioactivity; filed as Kd, often an IC50 or EC50 that approximates it; bounds were set here for any values at or beyond the usual limits of such assays
test.conditions: source organism: Dengue virus 4 Philippines/H241/1956
reported.metric: Kd (µM)

>  <entry.sequence>
HTTERGGKAY

>  <reported.metric>
Kd

>  <endpoint.value>
4.31

$$$$
>  <entry.sequence>
FSQHNYRQGY

>  <reported.metric>
Kd

>  <endpoint.value>
0.21

$$$$
>  <entry.sequence>
IISSTPFAEY

>  <reported.metric>
Kd

>  <endpoint.value>
3.44

$$$$

* * *

tested.system: HLA-B*51:01
protocol.notes: IEDB peptide-MHC binding, purified MHC/competitive/radioactivity; filed as Kd, often an IC50 or EC50 that approximates it; bounds were set here for any values at or beyond the usual limits of such assays
test.conditions: source organism: Human alphaherpesvirus 2
pKd: −log10 of the molar value.

>  <entry.sequence>
GPHETITAL

>  <pKd>
≤ 4.11

$$$$

* * *

tested.system: HLA-A*02:01
protocol.notes: IEDB peptide-MHC binding, purified MHC/direct/fluorescence; filed as Kd, often an IC50 or EC50 that approximates it; bounds were set here for any values at or beyond the usual limits of such assays
test.conditions: source organism: Entamoeba histolytica HM-1:IMSS
Documented Kd across a set of sequences

>  <entry.sequence>
NISLPLYTV

>  <measurement.units>
nM

>  <qual>
=

>  <Kd>
47.5

$$$$
>  <entry.sequence>
ETMKPAAMV

>  <measurement.units>
nM

>  <qual>
≥

>  <Kd>
20000

$$$$

* * *

tested.system: HLA-A*02:01
protocol.notes: IEDB peptide-MHC binding, purified MHC/direct/fluorescence; filed as Kd, often an IC50 or EC50 that approximates it; bounds were set here for any values at or beyond the usual limits of such assays
test.conditions: source organism: Mycobacterium tuberculosis C
reported.metric: Kd

>  <entry.sequence>
FPRYPLNVL

>  <endpoint.value>
≥ 20 µM

$$$$

* * *

tested.system: HLA-B*18:01
protocol.notes: IEDB peptide-MHC binding, purified MHC/direct/fluorescence; filed as Kd, often an IC50 or EC50 that approximates it; bounds were set here for any values at or beyond the usual limits of such assays
test.conditions: source organism: Listeria innocua
pKd: −log10 of the molar value.

>  <entry.sequence>
FPFGDVWNY

>  <pKd>
8.85

$$$$

* * *

tested.system: HLA-B*35:01
protocol.notes: IEDB peptide-MHC binding, purified MHC/competitive/fluorescence; filed as Kd, often an IC50 or EC50 that approximates it; bounds were set here for any values at or beyond the usual limits of such assays
test.conditions: source organism: Influenza A virus H3N2
pKd: −log10 of the molar value.

>  <entry.sequence>
SFSFGGFTF

>  <tested.system>
HLA-B*35:01

>  <pKd>
6.55

$$$$

* * *

tested.system: HLA-A*02:06
protocol.notes: IEDB peptide-MHC binding, purified MHC/competitive/radioactivity; filed as Kd, often an IC50 or EC50 that approximates it; bounds were set here for any values at or beyond the usual limits of such assays
test.conditions: source organism: Dengue virus 2 Jamaica/1409/1983
Documented Kd across a set of sequences

>  <entry.sequence>
HVLGRLITV

>  <Kd (nM)>
8.84

$$$$
>  <entry.sequence>
LMMATIGIAL

>  <Kd (nM)>
13.6

$$$$
>  <entry.sequence>
RTLILAPTRV

>  <Kd (nM)>
466

$$$$
>  <entry.sequence>
MTTEDMLAV

>  <Kd (nM)>
7.01

$$$$

* * *

tested.system: HLA-A*24:02
protocol.notes: IEDB peptide-MHC binding, purified MHC/competitive/radioactivity; filed as Kd, often an IC50 or EC50 that approximates it; bounds were set here for any values at or beyond the usual limits of such assays
test.conditions: source organism: Dengue virus 1 Brazil/97-11/1997
pKd: −log10 of the molar value.
reported.metric: pKd

>  <entry.sequence>
QYVYMGQPL

>  <endpoint.value>
5.34

$$$$

* * *

tested.system: HLA-B*46:01
protocol.notes: IEDB peptide-MHC binding, purified MHC/direct/fluorescence; filed as Kd, often an IC50 or EC50 that approximates it; bounds were set here for any values at or beyond the usual limits of such assays
test.conditions: source organism: Mycobacterium tuberculosis str. Haarlem

>  <entry.sequence>
WASGVPAAT

>  <tested.system>
HLA-B*46:01

>  <Kd>
≥ 20 µM

$$$$

* * *

tested.system: HLA-A*29:02
protocol.notes: IEDB peptide-MHC binding, purified MHC/competitive/fluorescence; bounds were set here for any values at or beyond the usual limits of such assays
test.conditions: source organism: Homo sapiens

>  <entry.sequence>
SLMASSPTSI

>  <measurement.units>
nM

>  <qual>
=

>  <IC50>
1210

$$$$
>  <entry.sequence>
YPDPVIKV

>  <measurement.units>
nM

>  <qual>
≥

>  <IC50>
20000

$$$$

* * *

tested.system: HLA-A*02:02
protocol.notes: IEDB peptide-MHC binding, purified MHC/competitive/radioactivity; filed as Kd, often an IC50 or EC50 that approximates it; bounds were set here for any values at or beyond the usual limits of such assays
test.conditions: source organism: Mammarenavirus juninense
pKd: −log10 of the molar value.
reported.metric: pKd

>  <entry.sequence>
CNYTKFWYV

>  <endpoint.value>
5.71

$$$$

* * *

Documented pKd across a set of sequences
tested.system: HLA-B*18:01
protocol.notes: IEDB peptide-MHC binding, purified MHC/competitive/fluorescence; filed as Kd, often an IC50 or EC50 that approximates it; bounds were set here for any values at or beyond the usual limits of such assays
test.conditions: source organism: Vibrio vulnificus YJ016
pKd: −log10 of the molar value.

>  <entry.sequence>
SVMSTFFWE

>  <tested.system>
HLA-B*18:01

>  <qual>
≤

>  <pKd>
4.70

$$$$
>  <entry.sequence>
DFISMYFPW

>  <tested.system>
HLA-B*18:01

>  <qual>
=

>  <pKd>
6.02

$$$$

* * *

tested.system: HLA-A*02:06
protocol.notes: IEDB peptide-MHC binding, purified MHC/competitive/radioactivity; filed as Kd, often an IC50 or EC50 that approximates it; bounds were set here for any values at or beyond the usual limits of such assays
test.conditions: source organism: Lassa virus Josiah
Documented Kd across a set of sequences

>  <entry.sequence>
GLYNFATCGL

>  <Kd [nM]>
218

$$$$
>  <entry.sequence>
YCSNIKLQVV

>  <Kd [nM]>
7120

$$$$
>  <entry.sequence>
GLVGLVTFLL

>  <Kd [nM]>
2060

$$$$

* * *

tested.system: HLA-A*03:01
protocol.notes: IEDB peptide-MHC binding, purified MHC/direct/fluorescence; filed as Kd, often an IC50 or EC50 that approximates it; bounds were set here for any values at or beyond the usual limits of such assays
test.conditions: source organism: Sudan ebolavirus - Maleo (1979)
pKd: −log10 of the molar value.

>  <entry.sequence>
GLSFLNPEK

>  <pKd>
6.82

$$$$

The values you see were collected from the Immune Epitope Database (IEDB).
